meta.source: paper PMC9469100

- Experimental system: PRMT1 (Homo sapiens, UniProt Q99873)
- Sequence (Q99873 whole entry): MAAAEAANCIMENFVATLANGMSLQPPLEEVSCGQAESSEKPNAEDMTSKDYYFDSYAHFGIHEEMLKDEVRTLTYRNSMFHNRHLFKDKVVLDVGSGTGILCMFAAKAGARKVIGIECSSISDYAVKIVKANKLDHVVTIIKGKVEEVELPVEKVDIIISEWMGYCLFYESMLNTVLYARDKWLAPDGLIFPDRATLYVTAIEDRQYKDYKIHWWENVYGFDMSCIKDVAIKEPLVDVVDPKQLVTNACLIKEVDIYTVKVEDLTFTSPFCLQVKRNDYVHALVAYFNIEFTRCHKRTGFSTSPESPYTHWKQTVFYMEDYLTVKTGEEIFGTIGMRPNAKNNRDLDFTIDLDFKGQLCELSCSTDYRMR
- Test: AlphaLISA PRMT1 activity assay (H4R3me)
- Condition context: read-out: % PRMT1 residual activ. @ 100 μM
Outcome measure: remaining activity at 100 µM (%)

Consider the reported remaining activity at 100 µM for these molecules:
- Molecule: "COC(=O)c1cc(O)c2cc(NC(=O)CCCCCCNC(=N)N)ccc2c1 [5c]"
  remaining activity at 100 µM / %: -0.49
- Molecule: "CNC(=N)NCCCNC(=O)Nc1ccc2cc(C(=O)OC)cc(O)c2c1 [7d]"
  remaining activity at 100 µM / %: 0.2
- Molecule: "COC(=O)c1cc(O)c2cc(NC(=O)[C@H](CCSC)NC(=O)Nc3ccc(OC)cc3)ccc2c1 [9d]"
  remaining activity at 100 µM / %: 75.9

[1] O=C(NCCCn1ccnc1)Nc1ccc2cc(C(=O)O)cc(O)c2c1 [8b]
[2] COC(=O)c1cc(O)c2cc(NC(=O)CCCCNC3=NCCN3)ccc2c1 [5g]
Query: // max by remaining activity at 100 µM over [ 1 , 2 ] // respond with label for picked entry
Reply: 2

[1] CNC(=N)NCCCCCC(=O)Nc1ccc2cc(C(=O)O)cc(O)c2c1 [6d]
[2] COC(=O)c1cc(O)c2cc(NC(=O)CCCCNC(=N)N)ccc2c1 [5a]
Query: Lower value for measured remaining activity at 100 µM? Options: 1 , 2 // respond with label for picked entry
Reply: 2

[a] COC(=O)c1cc(O)c2cc(NC(=O)NCCCn3ccnc3)ccc2c1 [7f]
[b] COC(=O)c1cc(O)c2cc(NC(=O)[C@@H](N)CCCNC(=N)N)ccc2c1 [11c]
Query: Lower value for measured remaining activity at 100 µM? Options: a , b // respond with label for picked entry
Reply: b
(b: 34.2%, a: 65.6%)

====

- Experimental system: human PRMT4 (full length) (Homo sapiens, UniProt Q86X55)
- Construct: Full-length recombinant PRMT4 (Active motif, # 81107); purchased Active motif # 81107
- Sequence (Q86X55 whole entry): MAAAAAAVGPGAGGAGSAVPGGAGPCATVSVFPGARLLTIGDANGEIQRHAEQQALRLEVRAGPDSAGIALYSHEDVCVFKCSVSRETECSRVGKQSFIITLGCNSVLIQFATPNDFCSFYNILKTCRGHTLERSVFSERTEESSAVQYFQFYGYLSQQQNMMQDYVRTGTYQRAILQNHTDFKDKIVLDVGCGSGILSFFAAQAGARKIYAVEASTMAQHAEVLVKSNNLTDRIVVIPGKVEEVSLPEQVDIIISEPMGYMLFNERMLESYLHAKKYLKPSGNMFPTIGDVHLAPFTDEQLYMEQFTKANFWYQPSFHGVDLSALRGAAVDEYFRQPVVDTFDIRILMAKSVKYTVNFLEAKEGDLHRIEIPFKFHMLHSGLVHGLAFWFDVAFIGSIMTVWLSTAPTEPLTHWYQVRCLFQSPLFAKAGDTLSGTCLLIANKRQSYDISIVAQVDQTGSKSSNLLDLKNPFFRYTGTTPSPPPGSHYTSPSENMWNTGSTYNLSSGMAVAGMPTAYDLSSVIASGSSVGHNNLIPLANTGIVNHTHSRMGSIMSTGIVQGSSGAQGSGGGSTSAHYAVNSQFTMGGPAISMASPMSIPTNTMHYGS
- Test: SPR binding to immobilized PRMT4
- Condition context: SPR, immobilized PRMT4, 25 °C; KD from ratio koff/kon
pKd: −log10 of the molar value.
Outcome measure: pKd

- Compound: "COC(=O)c1cc(O)c2cc(NC(=O)NCCCCNC(=N)NC[C@H]3O[C@@H](n4cnc5c(N)ncnc54)[C@H](O)[C@@H]3O)ccc2c1 [12b]"
  pKd: 5.64
- Compound: "COC(=O)c1cc(O)c2cc(NC(=O)NCCCCCCCNC(=N)NC[C@H]3O[C@@H](n4cnc5c(N)ncnc54)[C@H](O)[C@@H]3O)ccc2c1 [12e]"
  pKd: 6.22

[a] COC(=O)c1cc(O)c2cc(NC(=O)NCCCCNC(=N)NCCC[C@H]3O[C@@H](n4cnc5c(N)ncnc54)[C@H](O)[C@@H]3O)ccc2c1 [12g]
[b] COC(=O)c1cc(O)c2cc(NC(=O)NCCCCCNC(=N)NC[C@H]3O[C@@H](n4cnc5c(N)ncnc54)[C@H](O)[C@@H]3O)ccc2c1 [12c]
Query: // max by pKd over [ a , b ] // respond with label for picked entry
Reply: a

====

- Experimental system: PRMT1 (Homo sapiens, UniProt Q99873)
- Test: AlphaLISA PRMT1 activity assay (H4R3me)
- Condition context: ligand efficiency calculated from PRMT1 IC50 as a surrogate for KD
Outcome measure: LE

- Compound: "COC(=O)c1cc(O)c2cc(NC(=O)NCCCCCNC(=N)N)ccc2c1 [7c]"
  Numeric readout: 0.30
- Compound: "COC(=O)c1cc(O)c2cc(NC(=O)NCCCNC(=N)N)ccc2c1 [7a]"
  Numeric readout: 0.31
- Compound: "COC(=O)c1cc(O)c2cc(NC(=O)CCCCCCNC(=N)N)ccc2c1 [5c]"
  Numeric readout: 0.27
- Compound: "CNC(=N)NCCCNC(=O)Nc1ccc2cc(C(=O)OC)cc(O)c2c1 [7d]"
  Numeric readout: 0.33
